Assay: recombinant barcode read abundance after kanamycin selection (control-corrected) (log10(CPM+1)); higher = more efficient recombination; sequences stand for … in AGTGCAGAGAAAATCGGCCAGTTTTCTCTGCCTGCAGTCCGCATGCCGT…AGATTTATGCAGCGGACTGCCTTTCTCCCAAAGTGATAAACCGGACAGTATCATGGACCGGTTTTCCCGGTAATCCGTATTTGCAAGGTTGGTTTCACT; site = the 11-nt target
readoutKind: recombinant barcode read abundance (log10)

# residues, valueMeasured
measured = [
    ("GGACAGTCTTGGGTTCTAACCTGTTGCGT (site GGACAGTCTAC)", 2.56),
    ("CCGACTTCTTGGGTTCTAACCTGTTGCCT (site CCGACTTCTAG)", 0.164),
]

recombinant barcode read abundance (log10) lookup needed for TCGTCCTCTTGGGTTCTAACCTGTTGCCT (site TCGTCCTCTAG) , thanks.
0.323

recombinant barcode read abundance (log10) lookup needed for GATAGACCTTGGGTTCTAACCTGTTGCCT (site CATAGACCTAG) , thanks.
0.126

recombinant barcode read abundance (log10) lookup needed for ATCTGGGCTTGGGTTCTAACCTGTTGCCT (site ACCTGGGCTAG) , thanks.
0.0625

* * *

Assay: recombinant UMI read abundance after kanamycin selection (control-corrected) (log10(CPM+1)); higher = more efficient recombination; extreme values may be limits of the assay; sequences stand for … in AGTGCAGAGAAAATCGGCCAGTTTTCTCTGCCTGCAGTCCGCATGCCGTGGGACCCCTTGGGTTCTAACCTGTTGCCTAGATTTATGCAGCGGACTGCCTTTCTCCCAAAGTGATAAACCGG…AGGTTGGTTTCACT; site = the 11-nt donor
Overview of recorded recombinant UMI read abundance (log10) for various sequences
Just the number, please, no unit after it.

// below: answered sequences
# residues, valueMeasured
measured = [
    ("CTATTTCCATGGACCGGTTTTCCCGGTAATCCGTATTTGCG (site CTATTTCCTCG)", 0.264),
    ("CTGATACCATGGACCGGTTTTCCCGGTAATCCGTATTTGCT (site CTGCTACCTAG)", 0),
    ("CGTCTCACATGGACCGGTTTTCCCGGTAATCCGTATTTGGT (site CGTCTCACTAC)", 1.62),
    ("AGTCCAACATGGACCGGTTTTCCCGGTAATCCGTATTTGTA (site TGTCCAACTTA)", 0.141),
    ("GAGTGGCCATGGACCGGTTTTCCCGGTAATCCGTATTTGCA (site GACTGGCCTTG)", 0),
]

recombinant UMI read abundance (log10) lookup needed for AGCAAGACATGGACCGGTTTTCCCGGTAATCCGTATTTGCT (site AGCAAGACTAG) , thanks.
1.94

recombinant UMI read abundance (log10) lookup needed for TAAAGAGCATGGACCGGTTTTCCCGGTAATCCGTATTTGGG (site TAAAGAGCTCC) , thanks.
0.356

recombinant UMI read abundance (log10) lookup needed for CAAGTCCCATGGACCGGTTTTCCCGGTAATCCGTATTTGCT (site CAATTCCCTAG) , thanks.
0

recombinant UMI read abundance (log10) lookup needed for AATGTGGCATGGACCGGTTTTCCCGGTAATCCGTATTTGAC (site AATGTGACTGT) , thanks.
1.16
